Origin of the recorded values: ChEMBL document CHEMBL5291721

target: Muscarinic acetylcholine receptor M2 (Homo sapiens); type: functional, cell-based; further: assay procedure not described here
Sequence (P08172 whole entry): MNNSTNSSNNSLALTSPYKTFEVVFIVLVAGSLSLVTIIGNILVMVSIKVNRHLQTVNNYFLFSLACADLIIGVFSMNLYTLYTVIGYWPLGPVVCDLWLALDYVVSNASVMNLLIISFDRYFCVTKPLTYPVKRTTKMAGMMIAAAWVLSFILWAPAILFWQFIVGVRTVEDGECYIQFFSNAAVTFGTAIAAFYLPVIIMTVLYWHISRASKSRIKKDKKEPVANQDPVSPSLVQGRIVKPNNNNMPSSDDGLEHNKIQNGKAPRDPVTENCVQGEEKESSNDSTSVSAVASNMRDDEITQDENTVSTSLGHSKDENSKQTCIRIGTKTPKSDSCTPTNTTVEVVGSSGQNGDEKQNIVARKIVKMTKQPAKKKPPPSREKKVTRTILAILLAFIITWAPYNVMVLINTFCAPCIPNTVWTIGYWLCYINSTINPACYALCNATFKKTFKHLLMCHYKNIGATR
Give AC50 for every item shown.

Worked cases, answers included:
1. C[C@@H]1C[C@H]2[C@@H]3CCC4=CC(=O)C=C[C@]4(C)[C@@]3(F)[C@@H](O)C[C@]2(C)[C@@]1(O)C(=O)CO ... > 10 µM
2. CCc1nc(N)nc(N)c1-c1ccc(Cl)cc1 ... > 10 µM
3. CO/N=C(\C(=O)N[C@@H]1C(=O)N2C(C(=O)O)=C(CSc3nc(=O)c(=O)[nH]n3C)CS[C@H]12)c1csc(N)n1 ... > 30 µM
4. CCN1CCCC1CNC(=O)c1cc(S(=O)(=O)CC)ccc1OC (stereo not drawn) [SULTOPRIDE] ... > 30 µM
5. C/C=C(/C(=C/C)c1ccc(O)cc1)c1ccc(O)cc1 ... > 10 µM

Batch of 3 compounds: report AC50 for each.
1. CCCN1CCCC[C@H]1C(=O)Nc1c(C)cccc1C
2. Clc1ccc(CCC(Cn2ccnc2)Sc2c(Cl)cccc2Cl)cc1 (stereo not drawn)
3. COC(=O)C1=C(C)NC(C)=C(C(=O)OCCN2CCN(C(c3ccccc3)c3ccccc3)CC2)C1c1cccc([N+](=O)[O-])c1 (stereo not drawn)

[A]
1: > 30 µM; 2: > 30 µM; 3: > 30 µM

====

Reported values: AC50 for 5-hydroxytryptamine receptor 1A (Homo sapiens), one per item.

1) O=C(NNCS(=O)(=O)O)c1ccncc1 [METHANIAZIDE] ... > 30 µM

Batch of 4 molecules: report AC50 for each.
1. Clc1ccc(C(Cn2ccnc2)OCc2csc3c(Cl)cccc23)c(Cl)c1 (stereo not given) [SERTACONAZOLE]
2. N=C(N)N/N=C/c1c(Cl)cccc1Cl [GUANABENZ]
3. CCC1=C[C@@H]2CN(C1)Cc1c([nH]c3ccccc13)[C@@](C(=O)OC)(c1cc3c(cc1OC)N(C)[C@H]1[C@@](O)(C(=O)OC)[C@H](OC(C)=O)[C@]4(CC)C=CCN5CC[C@]31[C@@H]54)C2 [VINORELBINE]
4. CC[N+](C)(CC)CCOC(=O)C(O)(c1ccccc1)C1CCCCC1 (stereo not given) [OXYPHENONIUM]

[A]
12.4 µM
0.604 µM
> 30 µM
> 30 µM

Batch of 8 molecules: report AC50 for each.
1. CC[C@]12CCCN3CCc4c(n(c5ccccc45)[C@@](O)(C(=O)OC)C1)[C@@H]32 [VINCAMINE]
2. Cc1oc(=O)oc1COC(=O)[C@@H]1N2C(=O)[C@@H](NC(=O)[C@H](N)c3ccccc3)[C@H]2SC1(C)C [LENAMPICILLIN]
3. COc1ccccc1OC1(C)OC(=O)c2ccccc2O1 (stereo not given) [GUAIMESAL]
4. CN1CCCN(C(c2ccccc2)c2ccc(Cl)cc2)CC1 (stereo not given) [HOMOCHLORCYCLIZINE]
5. CC(=O)O[C@H]1Cc2ccccc2N(C(N)=O)c2ccccc21 [ESLICARBAZEPINE ACETATE]
6. C[C@H]1O[C@@H](O[C@H]2CC[C@@]3(C)[C@H](CC[C@@H]4[C@@H]3C[C@@H](O)[C@]3(C)[C@@H](C5=CC(=O)OC5)CC[C@]43O)C2)C[C@H](O)[C@@H]1O[C@H]1C[C@H](O)[C@H](O[C@H]2C[C@H](O)[C@H](O[C@@H]3O[C@H](CO)[C@@H](O)[C@H](O)[C@H]3O)[C@@H](C)O2)[C@@H](C)O1 [DESLANOSIDE]
7. Nc1c(CC(=O)O)cccc1C(=O)c1ccc(Br)cc1 [BROMFENAC]
8. CC(C(=O)O)c1cccc(Oc2ccccc2)c1 (stereo not given) [FENOPROFEN]

[A]
1. > 30 µM
2. > 30 µM
3. > 30 µM
4. 13.7 µM
5. > 30 µM
6. > 30 µM
7. > 30 µM
8. > 30 µM

Batch of 2 molecules: report AC50 for each.
1. C=N[C@@H](C(=O)N[C@@H]1C(=O)N2[C@@H]1SC(C)(C)[C@@H]2C(=O)O)c1ccccc1 [METAMPICILLIN]
2. CC(=O)[C@H]1CC[C@H]2[C@@H]3C=CC4=CC(=O)CC[C@@]4(C)[C@@H]3CC[C@]12C [DYDROGESTERONE]

[A]
["> 30 µM", "> 30 µM"]
